- SYSTEM: cloned human V1a receptor (Homo sapiens)
- Construct: host or cells: human brain astrocytoma 1321N1 cells
- MEASUREMENT_PROTOCOL: in vitro functional calcium mobilisation assay (FLIPR), antagonist activity, 1321N1 cells, 250 pM AVP
- Type: cell-based
- EXPERIMENTAL_CONTEXT: functional pKi derived from pIC50 (Equation 1), FLIPR Ca2+ mobilisation, 1321N1 cells expressing cloned human V1a receptor, read-out: Mean fpKi (Human V1a) (converted)
RECORDED_METRIC: log10(Ki) (log10 of the value in nM)
Units before log transform: nM; reported quantity: Ki; transform: log10.

As a guide, the following entries are already answered.
Cc1ccc(N2CCC(C(=O)N3Cc4cnn(C)c4Nc4cc(C)ccc43)CC2)nc1 [Example 112] ... 0.45
O=C(C1CCN(c2cnccn2)CC1)N1Cc2cccn2Cc2ccccc21 [Example 148] ... 1.45

Data request: Look up log10(Ki): Cc1cccnc1N1CCC(C(=O)N2CCc3nc(N4CCOCC4)[nH]c3-c3ccccc32)CC1 [Example 10]
Data returned: 0.70

Data request: Proceed to Cc1ccc2c(c1)-c1[nH]c(N3CCOCC3)nc1CCN2C(=O)C1CCN(c2ccc(C(F)(F)F)cn2)CC1 [Example 35]
Data returned: 0.85

Data request: Proceed to Cc1ccc(N2CCC(C(=O)N3CCc4nc(N5CCN(C)CC5)[nH]c4-c4cc(C)ccc43)CC2)nc1 [Example 30]
Data returned: 0.25

Data request: Proceed to Cc1cccc(N2CCC(C(=O)N3Cc4cnn(C)c4Nc4cc(Cl)ccc43)CC2)n1 [Example 125]
Data returned: 0.77

Data request: Proceed to Cc1nc2c([nH]1)-c1cc(Cl)ccc1N(C(=O)C1CCN(c3ccccn3)CC1)CC2 [Example 44]
Data returned: 1.10

Data request: Proceed to O=C(C1CCN(c2ccccc2)CC1)N1CCc2nc(C3CCCCC3)[nH]c2-c2cc(Cl)ccc21 [Example 76]
Data returned: 1.45

###

- SYSTEM: cloned human V1a receptor (Homo sapiens)
- Construct: host or cells: human brain astrocytoma 1321N1 cells
- MEASUREMENT_PROTOCOL: in vitro functional calcium mobilisation assay (FLIPR), antagonist activity, 1321N1 cells, 250 pM AVP
- Type: cell-based
- EXPERIMENTAL_CONTEXT: functional pKi derived from pIC50 (Equation 1), FLIPR Ca2+ mobilisation, 1321N1 cells expressing cloned human V1a receptor, read-out: Mean fpKi (Human V1a) (converted)
Measured Ki of individual entries
# value in nM; strip the unit string

COc1cccc(N2CCC(C(=O)N3CCc4nc(C5CCOCC5)[nH]c4-c4cc(C)ccc43)CC2)n1 ... 30.9
Cc1ccc(N2CCC(C(=O)N3Cc4cnn(C)c4Nc4cc(Cl)ccc43)CC2)cn1 ... 2.88
O=C(C1CCN(c2ccccn2)CC1)N1CCc2nc(-c3ccccc3)[nH]c2-c2cc(Cl)ccc21 ... 64.6
Cc1ccc(N2CCC(C(=O)N3Cc4cccn4Cc4ccccc43)CC2)cc1 ... 1.12
Cc1ccc(N2CCC(C(=O)N3Cc4cnn(C(C)(C)C)c4Nc4cc(F)ccc43)CC2)nc1 ... 5.37

Data request: Record Cc1ccnc(N2CCC(C(=O)N3CCc4nc(C5CCOCC5)[nH]c4-c4cc(C)ccc43)CC2)c1 : what is its Ki with cloned human V1a receptor (Homo sapiens)?
Data returned: 2.24

Data request: Proceed to Cc1cccc(N2CCC(C(=O)N3CCc4nc(C)[nH]c4-c4cc(Cl)ccc43)CC2)c1
Data returned: 9.55

Data request: Proceed to Cc1ccc2c(c1)-c1[nH]c(N3CCOCC3)nc1CCN2C(=O)C1CCN(c2cccc(C)n2)CC1
Data returned: 1.86

###

- SYSTEM: cloned human V1a receptor (Homo sapiens, UniProt P37288)
- Construct: host or cells: human brain astrocytoma 1321N1 cells
- Sequence (P37288 whole entry): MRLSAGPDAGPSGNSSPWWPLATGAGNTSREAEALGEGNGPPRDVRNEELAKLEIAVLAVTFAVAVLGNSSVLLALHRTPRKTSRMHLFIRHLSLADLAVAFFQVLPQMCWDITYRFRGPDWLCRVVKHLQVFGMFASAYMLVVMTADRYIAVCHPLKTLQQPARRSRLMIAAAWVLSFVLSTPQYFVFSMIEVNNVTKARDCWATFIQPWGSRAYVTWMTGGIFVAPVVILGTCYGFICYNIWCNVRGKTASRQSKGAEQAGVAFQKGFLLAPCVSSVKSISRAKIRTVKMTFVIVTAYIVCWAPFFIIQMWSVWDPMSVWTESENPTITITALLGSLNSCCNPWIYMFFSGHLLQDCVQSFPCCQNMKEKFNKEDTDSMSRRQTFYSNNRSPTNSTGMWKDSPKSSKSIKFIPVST
- MEASUREMENT_PROTOCOL: in vitro functional calcium mobilisation assay (FLIPR), antagonist activity, 1321N1 cells, 250 pM AVP
- Type: cell-based
- EXPERIMENTAL_CONTEXT: functional pKi derived from pIC50 (Equation 1), FLIPR Ca2+ mobilisation, 1321N1 cells expressing cloned human V1a receptor, read-out: Mean fpKi (Human V1a) (converted)
- Text: The primary assay which may be used to determine the ability of the compounds of formula (1) to inhibit the vasopressin V1a receptor is an in vitro functional calcium mobilisation assay (FLIPR) that measures antagonist activity at a cloned human V1a receptor. The assay is described below. […]
Ranges used to classify Ki: low-valued = under 3 nM, mid-valued = from 3 nM up to 20 nM, high-valued = 20 nM and over

Cc1ccc(N2CCC(C(=O)N3Cc4cccn4Cc4ccccc43)CC2)nc1 ... mid-valued

We now examine a further compound.
Data request: Form field 'band' for CCCc1ccc(N2CCC(C(=O)N3CCc4nc(C)[nH]c4-c4cc(Cl)ccc43)CC2)cc1
Data returned: mid-valued

###

- SYSTEM: cloned human V1a receptor (Homo sapiens)
- Construct: host or cells: human brain astrocytoma 1321N1 cells
- MEASUREMENT_PROTOCOL: in vitro functional calcium mobilisation assay (FLIPR), antagonist activity, 1321N1 cells, 250 pM AVP
- Assay type: cell-based
- EXPERIMENTAL_CONTEXT: functional pKi derived from pIC50 (Equation 1), FLIPR Ca2+ mobilisation, 1321N1 cells expressing cloned human V1a receptor, read-out: Mean fpKi (Human V1a) (converted)
RECORDED_METRIC: Ki (nM)
# value in nM; strip the unit string

Cc1cccc(N2CCC(C(=O)N3Cc4cnn(C)c4Nc4cc(Cl)ccc43)CC2)c1 ... 1.29

Data request: Record COc1ccc(N2CCC(C(=O)N3Cc4cccn4Cc4ccccc43)CC2)cc1 : what is its Ki with cloned human V1a receptor (Homo sapiens)?
Data returned: 14.1

Data request: Proceed to Cn1ncc2c1Nc1cc(Cl)ccc1N(C(=O)C1CCN(c3ncccn3)CC1)C2
Data returned: 75.9

Data request: Proceed to O=C(C1CCN(c2ccc(Cl)cc2)CC1)N1Cc2cccn2Cc2ccccc21
Data returned: 4.79

###

Measured log10(Ki) of individual entries
- SYSTEM: cloned human V1a receptor (Homo sapiens)
- Construct: host or cells: human brain astrocytoma 1321N1 cells
- MEASUREMENT_PROTOCOL: in vitro functional calcium mobilisation assay (FLIPR), antagonist activity, 1321N1 cells, 250 pM AVP
- Type: cell-based
- EXPERIMENTAL_CONTEXT: functional pKi derived from pIC50 (Equation 1), FLIPR Ca2+ mobilisation, 1321N1 cells expressing cloned human V1a receptor, read-out: Mean fpKi (Human V1a) (converted)
Units before log transform: nM; reported quantity: Ki; transform: log10.

As a guide, the following entries are already answered.
Cc1ccnc(N2CCC(C(=O)N3CCc4nc(N5CCOCC5)[nH]c4-c4cc(Cl)ccc43)CC2)c1 ... -0.19
Cc1nc2c([nH]1)-c1cc(Cl)ccc1N(C(=O)C1CCN(c3ncccn3)CC1)CC2 ... 1.69
CC(C)c1ccc(N2CCC(C(=O)N3Cc4cccn4Cc4ccccc43)CC2)cc1 ... 0.56
Cc1ccc(N2CCC(C(=O)N3CCc4nc(N5CCOCC5)[nH]c4-c4ccccc43)CC2)nc1 ... 0.33
Cc1nc2c([nH]1)-c1cc(Cl)ccc1N(C(=O)C1CCN(c3ccc(Cl)cc3)CC1)CC2 ... 0.79
O=C(C1CCN(c2ncccn2)CC1)N1Cc2cnn(-c3ccccc3)c2Nc2cc(Cl)ccc21 ... 1.15
Cc1cccc(N2CCC(C(=O)N3CCc4nc(N5CCOCC5)[nH]c4-c4cc(Cl)ccc43)CC2)n1 ... 0.13

Here is the next item to consider.
Data request: Look up log10(Ki): COc1ccccc1N1CCC(C(=O)N2Cc3cccn3Cc3ccccc32)CC1
Data returned: 0.50

###

- SYSTEM: cloned human V1a receptor (Homo sapiens)
- Construct: host or cells: human brain astrocytoma 1321N1 cells
- MEASUREMENT_PROTOCOL: in vitro functional calcium mobilisation assay (FLIPR), antagonist activity, 1321N1 cells, 250 pM AVP
- Type: cell-based
- EXPERIMENTAL_CONTEXT: functional pKi derived from pIC50 (Equation 1), FLIPR Ca2+ mobilisation, 1321N1 cells expressing cloned human V1a receptor, read-out: Mean fpKi (Human V1a) (converted)
RECORDED_METRIC: Ki
Entry format: amount then unit.

As a guide, the following entries are already answered.
CCCc1nc2c([nH]1)-c1cc(C)ccc1N(C(=O)C1CCN(c3ccccn3)CC1)CC2 ... 12.3 nM
CCCc1nc2c([nH]1)-c1cc(C)ccc1N(C(=O)C1CCN(c3cccc(C)n3)CC1)CC2 ... 7.41 nM
CCc1cnc(N2CCC(C(=O)N3Cc4cnn(-c5ccccc5)c4Nc4cc(Cl)ccc43)CC2)nc1 ... 13.8 nM
COc1ccnc(N2CCC(C(=O)N3CCc4nc(N5CCOCC5)[nH]c4-c4cc(C)ccc43)CC2)c1 ... 0.977 nM
Cc1ccc2c(c1)-c1[nH]c(C3CCOCC3)nc1CCN2C(=O)C1CCN(c2cccc(C)n2)CC1 ... 7.59 nM
CCc1ccc(N2CCC(C(=O)N3Cc4cnn(C)c4Nc4cc(C)ccc43)CC2)cc1 ... 0.741 nM

Here is the next item to consider.
Data request: Look up Ki: O=C(C1CCN(c2ccccn2)CC1)N1CCc2nc(C3CC3)[nH]c2-c2cc(Cl)ccc21
Data returned: 10.2 nM
